test system: Hep3B; assay: Anti-proliferative MTT assay, Hep3B; type: cell-based; details: Homo sapiens, 96 h, Liver, 4 days
Property measured: pIC50
// field semantics: pIC50 = negative decimal log of concentration (mol/L)

Form field pIC50, entry `CCOC(=O)Cn1c(C)c(/C=N/NC(=O)c2cc3c(ccc4ccccc43)o2)c2ccccc21` : 6.17

###

tested on: NCl-H460; experiment: Anti-proliferative MTT assay, NCl-H460; type: cell-based; details: 96 h, NCl-H460, Lung, 4 days
Property measured: IC50 (nM)
// note: answer is a bare numeric in nM

The molecule CCOC(=O)Cn1c(C)c(/C=N/NC(=O)c2cc3c(ccc4ccccc43)o2)c2ccccc21 [STK899704] showed IC50 equal to 806
